MEASUREMENT NAME: melting point

Determine from records and report melting point for FC(F)(F)c1ccc(N=Cc2cn3cccnc3n2)cc1
224 to 226 °C

* * *

Test system: MDA–MB-231 cells
ASSAY PROCEDURE: Sulforhodamine B (SRB) antiproliferative assay, MDA–MB-231
Format: cell-based, human
PARTICULARS: Homo sapiens; MDA–MB-231 cells, 48 h, SRB
MEASUREMENT NAME: pIC50
Formally, pIC50 is defined as -log10 of the concentration c, with c in mol/L.

MOL SMILES: CCN(CC)c1ccc(NCc2cn3cccnc3n2)cc1
MEASUREMENT NAME: pIC50
NUMERIC VALUE: 4.45

Now let's try a different one.
Answer with reported pIC50 of CCN(CC)c1ccc(/N=C/c2cn3cccnc3n2)cc1
4.44

* * *

Measured melting point by item

MOL SMILES: CCN(CC)c1ccc(/N=C/c2cn3cccnc3n2)cc1
RESULT: 182 to 183 °C
--
MOL SMILES: COc1ccc(N=Cc2cn3cccnc3n2)cc1
RESULT: 191 to 192 °C
--
MOL SMILES: FC(F)(F)c1ccc(NCc2cn3cccnc3n2)cc1
RESULT: 217 to 218 °C
--
MOL SMILES: c1ccc(NCc2cn3cccnc3n2)cc1
RESULT: 194 to 197 °C
--
MOL SMILES: c1ccc2c(NCc3cn4cccnc4n3)cccc2c1
RESULT: 217 to 219 °C
--
MOL SMILES: CCN(CC)c1ccc(NCc2cn3cccnc3n2)cc1
RESULT: 146 to 148 °C

Moving on to another compound below.
Tell us which melting point value is on record for COc1ccc(NCc2cn3cccnc3n2)cc1
175 to 176 °C
